Exercise: state measured Kd for each of the binders provided.
# subject-of-test: yeast histone H2A-H2B dimer (Saccharomyces cerevisiae) (UniProt P04911)
# test-summary: ITC; ITC200 at 20 °C; 0.5 mM ARB2 or mutant in the injector, 0.2 mM H2A/B or 0.25 mM H3/4 in the sample cell; 25 mM Tris-HCl pH 7.5, 200 mM NaCl; single-site fitting model
Please reply with the bare figure in µM and do not write the unit itself.

Q: Item ARB2-M2 (residues Tyr468 and Glu472 mutated to Ala) (domain or fragment) LQKAIRQQQQHALSDAFNFVTLPLVSMDLPDNTVLCTPNISESNTIIIVVHDTSDIWAKRNVISGTIDLSSSVIIDNSLDFIKWGLDRKYGIIDVNIPLTLFEPDNYSGMITSQEVLIYLWDNYIKYFPSVAKIAFIGIGDSYSGIVHLLGHRDTRAVTKTVINFLGDKQLKPLVPLVDETLSEWYFKNSLIFSNNSHQCWKENESRKPRKKFGRVLRCDTDGLNNIIEERFEEATDFILDS has what recorded Kd?
Ans: 16.9

Q: Requested read-out: Kd. Entry: ARB2-M4 (residues His604, His608 and Arg609 mutated to Ala) (domain or fragment) LQKAIRQQQQHYLSDEFNFVTLPLVSMDLPDNTVLCTPNISESNTIIIVVHDTSDIWAKRNVISGTIDLSSSVIIDNSLDFIKWGLDRKYGIIDVNIPLTLFEPDNYSGMITSQEVLIYLWDNYIKYFPSVAKIAFIGIGDSYSGIVALLGAADTRAVTKTVINFLGDKQLKPLVPLVDETLSEWYFKNSLIFSNNSHQCWKENESRKPRKKFGRVLRCDTDGLNNIIEERFEEATDFILDS
Ans: 17.4

Q: Which Kd value belongs to ARB2-M1 (residues Gln463, His467 and Asp471 mutated to Ala) (domain or fragment) LQKAIRAQQQAYLSAEFNFVTLPLVSMDLPDNTVLCTPNISESNTIIIVVHDTSDIWAKRNVISGTIDLSSSVIIDNSLDFIKWGLDRKYGIIDVNIPLTLFEPDNYSGMITSQEVLIYLWDNYIKYFPSVAKIAFIGIGDSYSGIVHLLGHRDTRAVTKTVINFLGDKQLKPLVPLVDETLSEWYFKNSLIFSNNSHQCWKENESRKPRKKFGRVLRCDTDGLNNIIEERFEEATDFILDS ?
Ans: 20.4

Q: Consider the binder ARB2-M3 (residues Val481, Ser482, Met483 and Asp484 mutated to Ala) (domain or fragment) LQKAIRQQQQHYLSDEFNFVTLPLAAAALPDNTVLCTPNISESNTIIIVVHDTSDIWAKRNVISGTIDLSSSVIIDNSLDFIKWGLDRKYGIIDVNIPLTLFEPDNYSGMITSQEVLIYLWDNYIKYFPSVAKIAFIGIGDSYSGIVHLLGHRDTRAVTKTVINFLGDKQLKPLVPLVDETLSEWYFKNSLIFSNNSHQCWKENESRKPRKKFGRVLRCDTDGLNNIIEERFEEATDFILDS and give its measured Kd.
Ans: 27.7

Just for reference, paper PMC5036196 is where these values come from.
